These data points were gathered from ChEMBL document CHEMBL1201862.

Measured IC50 of individual entries
Biological target: 26S proteasome non-ATPase regulatory subunit 14 (Homo sapiens, UniProt O00487)
Sequence (O00487 whole entry): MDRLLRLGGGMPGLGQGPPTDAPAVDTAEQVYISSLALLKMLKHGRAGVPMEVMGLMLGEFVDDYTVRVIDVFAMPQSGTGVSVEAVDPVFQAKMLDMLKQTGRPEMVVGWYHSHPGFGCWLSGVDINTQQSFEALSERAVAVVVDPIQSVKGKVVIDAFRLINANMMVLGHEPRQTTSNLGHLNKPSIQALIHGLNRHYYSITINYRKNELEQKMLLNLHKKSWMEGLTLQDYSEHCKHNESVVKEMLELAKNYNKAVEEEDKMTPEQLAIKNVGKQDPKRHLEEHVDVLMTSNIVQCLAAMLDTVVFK
Assay: inhibition of proteasome subunit RPN11 – biochemical, fluorescence polarization, uHTS hits, confirmation (AID 602368)
Type: functional
Activity calls are given as the source filed them.

1) Cc1cc2ncn(/N=C/c3ccc([N+](=O)[O-])o3)c2cc1C = 73.6 µM (active)
2) Cn1c2ccccc2c2cc(C(=O)OCC(=O)N3CC(=O)Nc4ccccc43)sc21 = 13.9 µM (active)
3) COC(=O)c1ccc(NC(=O)c2ccc(NC(=O)c3ccco3)cc2)cc1 = 23 µM (active)

Looking up `O=C(N/N=C/c1sc(N2CCOCC2)nc1-c1ccccc1)c1cccc(S(=O)(=O)N2CCCC2)c1` , I found its IC50 recorded as 19.6 µM (active)

====

Test: alpha-synuclein stem-loop luciferase translation blockers – H4 neuroglioma cells, luminescence, confirmation (AID 1988)
Assay type: functional, cell-based
Active and inactive are the calls of the source.
measurement.kind: EC50

Some solved entries appear below for comparison.
1) CC(=O)N(C(C)=O)c1[nH]cc2c3ccccc3nc-2c1C#N = 15.7 µM (active)
2) O=c1n(Cc2ccccc2F)c2ccccc2n1Cc1ccccc1F = > 120 µM (not active)
3) COc1ccc(C2=NN(C(=O)COc3ncnc4ccccc34)C(c3ccco3)C2)cc1 (stereo not given) = > 60 µM (not active)

Looking up `O=C(/C=C/c1ccccc1)Nc1ccc2c(c1)OCCO2` , I found its EC50 recorded as 9.98 µM (inconclusive)

Looking up `CCCc1cc(NCCCCO)n2c(nc3ccccc32)c1C#N` , I found its EC50 recorded as > 120 µM (not active)

====

Target: Calpain-2 catalytic subunit (Sus scrofa, UniProt P43367)
Sequence (P43367 whole entry): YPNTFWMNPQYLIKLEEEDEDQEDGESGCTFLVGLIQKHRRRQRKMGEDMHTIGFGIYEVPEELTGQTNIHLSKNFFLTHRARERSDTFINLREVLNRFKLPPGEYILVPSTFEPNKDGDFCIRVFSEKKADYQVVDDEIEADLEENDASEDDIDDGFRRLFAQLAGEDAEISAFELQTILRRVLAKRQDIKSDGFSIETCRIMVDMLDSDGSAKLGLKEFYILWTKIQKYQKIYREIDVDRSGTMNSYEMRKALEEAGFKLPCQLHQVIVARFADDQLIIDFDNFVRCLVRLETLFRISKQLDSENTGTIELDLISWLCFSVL
Experiment: m-calpain protease blockers, concentration series – biochemical, fluorogenic peptide substrate, dose response (AID 1420)
Assay type: functional
Measured IC50 of individual entries

1. CCOC(=O)N1CCC(NC(=O)c2ccc3c(c2)ncn3C2CCCC2)CC1 = 23.1 µM (not active)
2. O=Cc1ccc(-c2ccc([N+](=O)[O-])cc2Cl)o1 = > 50 µM (not active)

// compound O=C(NCc1cccnc1)C1CCC(CNS(=O)(=O)c2ccc(Cl)cc2)CC1 (stereo not drawn) , assay Calpain-2 catalytic subunit (Sus scrofa, UniProt P43367), IC50 value: 2.58 µM (not active)

// compound CCOC(=O)C1=C(CNC(C)(C)CC(C)(C)C)NC(=O)NC1c1cccc([N+](=O)[O-])c1 (stereo not drawn) , assay Calpain-2 catalytic subunit (Sus scrofa, UniProt P43367), IC50 value: > 50 µM (not active)

// compound `Cc1cc(NC(=O)CSc2nc3cc(C(=O)NCCCOC(C)C)ccc3c(=O)n2Cc2ccco2)no1` , assay Calpain-2 catalytic subunit (Sus scrofa, UniProt P43367), IC50 value: 16.1 µM (not active)

// compound `CCOC(=O)C1CN(S(=O)(=O)c2ccc(C)cc2)C1` , assay Calpain-2 catalytic subunit (Sus scrofa, UniProt P43367), IC50 value: 4.65 µM (not active)

// compound `O=C(COc1ccc(Cl)cc1)Nc1ncc([N+](=O)[O-])s1` , assay Calpain-2 catalytic subunit (Sus scrofa, UniProt P43367), IC50 value: 24.9 µM (not active)

// compound `CC(C)Sc1nc2c3ccccc3nc-2c(O)n1C` , assay Calpain-2 catalytic subunit (Sus scrofa, UniProt P43367), IC50 value: 0.899 µM (not active)

====

Biological target: FAD-linked sulfhydryl oxidase ALR (Homo sapiens, UniProt P55789)
Sequence (P55789 whole entry): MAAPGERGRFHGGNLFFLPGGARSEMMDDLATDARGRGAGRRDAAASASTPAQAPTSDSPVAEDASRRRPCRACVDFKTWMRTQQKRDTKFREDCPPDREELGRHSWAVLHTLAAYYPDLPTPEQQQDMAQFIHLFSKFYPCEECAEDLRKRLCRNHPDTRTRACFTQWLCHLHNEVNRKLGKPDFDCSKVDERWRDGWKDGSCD
Assay: ALR-catalysed DTT oxidation blockers – biochemical, H2O2 detection, luminescence, cherry-pick, dose response (AID 493248)
Active and inactive are the calls of the source.
Measured AC50 of individual entries

Looking up `O=C(O)c1cc(N/N=C/c2ccc(-c3ccccc3)cc2)ccc1Cl` , I found its AC50 recorded as 1.83 µM (active)

====

Target: Kappa-type opioid receptor (Homo sapiens, UniProt P41145)
Sequence (P41145 whole entry): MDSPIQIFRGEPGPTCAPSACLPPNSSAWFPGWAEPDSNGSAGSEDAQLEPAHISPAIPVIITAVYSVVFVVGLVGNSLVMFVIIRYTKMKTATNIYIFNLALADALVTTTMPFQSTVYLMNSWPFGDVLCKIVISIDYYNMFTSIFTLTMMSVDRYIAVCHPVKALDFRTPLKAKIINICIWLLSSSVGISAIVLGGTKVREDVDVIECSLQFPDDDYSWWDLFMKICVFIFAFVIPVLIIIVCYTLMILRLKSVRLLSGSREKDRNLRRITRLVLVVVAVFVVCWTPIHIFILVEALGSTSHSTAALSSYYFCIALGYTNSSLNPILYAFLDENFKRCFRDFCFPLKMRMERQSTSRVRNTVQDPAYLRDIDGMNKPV
Format: functional
measurement.kind: pEC50
Scale: negative log10 of molar concentration, which is what pEC50 denotes.

Looking up `N#Cc1ccc(-c2cccnc2)nc1SCC(=O)Nc1sc2c(c1C#N)CCC2` , I found its pEC50 recorded as 4.80

====

Molecular target: Microphthalmia-associated transcription factor (Homo sapiens)
Sequence (O75030 whole entry): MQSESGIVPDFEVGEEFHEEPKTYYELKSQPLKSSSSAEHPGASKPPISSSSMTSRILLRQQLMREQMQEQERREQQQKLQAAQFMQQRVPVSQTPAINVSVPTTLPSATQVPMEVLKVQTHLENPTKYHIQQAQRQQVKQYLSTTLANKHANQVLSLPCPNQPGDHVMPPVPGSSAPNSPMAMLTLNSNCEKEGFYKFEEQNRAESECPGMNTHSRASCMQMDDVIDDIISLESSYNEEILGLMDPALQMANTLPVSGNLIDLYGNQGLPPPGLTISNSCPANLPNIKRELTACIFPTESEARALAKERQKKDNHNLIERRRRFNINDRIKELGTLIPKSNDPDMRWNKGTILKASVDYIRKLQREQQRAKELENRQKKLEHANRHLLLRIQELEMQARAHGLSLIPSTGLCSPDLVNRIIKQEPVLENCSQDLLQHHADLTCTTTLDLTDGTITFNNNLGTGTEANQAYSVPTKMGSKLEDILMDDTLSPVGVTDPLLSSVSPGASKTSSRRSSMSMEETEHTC
Test: reducers of TRPM1 reporter luminescence, concentration series – cell-based, SK-MEL-5, cherry-picked, set 3, MITF inhibitor project, dose response (AID 493073);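 further: SK-MEL-5 melanoma cells with luciferase driven by the MITF target TRPM1 promoter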
Format: functional
Activity calls are given as the source filed them.
measurement.kind: AC50

Some solved entries appear below for comparison.
1. CCOC(=O)Cn1cc([N+](=O)[O-])nc1[N+](=O)[O-] = 29.5 µM (active)
2. O=C(N/N=C/c1cccc2cccnc12)c1ccccc1O = 24.8 µM (active)

// compound `Cn1nnnc1Sc1ncnc2scc(-c3ccc[nH]3)c12` , assay Microphthalmia-associated transcription factor (Homo sapiens), AC50 value: 7.32 µM (active)

====

Target: High affinity choline transporter 1 (Homo sapiens, UniProt Q9GZV3)
Sequence (Q9GZV3 whole entry): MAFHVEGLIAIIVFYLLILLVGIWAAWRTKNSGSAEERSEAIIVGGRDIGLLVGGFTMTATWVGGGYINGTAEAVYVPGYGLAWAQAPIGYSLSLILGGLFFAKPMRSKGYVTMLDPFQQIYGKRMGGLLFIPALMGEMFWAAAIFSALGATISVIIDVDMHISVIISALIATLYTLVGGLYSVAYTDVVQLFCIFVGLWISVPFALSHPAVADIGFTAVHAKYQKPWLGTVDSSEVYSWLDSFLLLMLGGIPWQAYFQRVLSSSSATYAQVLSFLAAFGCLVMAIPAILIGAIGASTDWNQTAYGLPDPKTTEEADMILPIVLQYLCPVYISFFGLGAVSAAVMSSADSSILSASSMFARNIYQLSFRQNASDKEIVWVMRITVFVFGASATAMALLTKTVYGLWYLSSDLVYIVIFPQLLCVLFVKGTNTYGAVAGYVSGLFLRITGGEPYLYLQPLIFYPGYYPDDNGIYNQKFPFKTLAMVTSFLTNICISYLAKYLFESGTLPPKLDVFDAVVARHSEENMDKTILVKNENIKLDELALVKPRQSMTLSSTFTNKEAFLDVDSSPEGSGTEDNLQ
Experiment: human choline transporter blockers, potency – cell-based, 5-point CRC, membrane potential dye, dose response (AID 504840)
Type: functional
The source made the active and inactive calls.
measurement.kind: IC50

Some solved entries appear below for comparison.
1. CC(C)(C)NCC(O)c1cc(O)cc(O)c1 (configuration not stated) = 0.0841 µM (active)
2. CCOc1cc(N2CCOCC2)c(OCC)cc1NC(=O)Cc1ccccc1 = 13.2 µM (active)
3. CC1CCCCC1NC(=O)Cn1nnc(-c2ccc(Cl)cc2)n1 (configuration not stated) = 6.61 µM (active)
4. O=[N+]([O-])c1ccc(CSc2nnc3ccccn23)cc1 = 4.29 µM (active)
5. CCN(CC)S(=O)(=O)c1cc(C(=O)Nc2nncs2)c(Cl)cc1Cl = 7.64 µM (active)
6. O=C(C[n+]1cccc2ccccc21)c1ccc(Br)cc1 = 13.2 µM (active)
7. CC(C)c1ccc(S(=O)(=O)N2CCC(C(=O)NCC3(N(C)C)CCCCC3)CC2)cc1 = 12.6 µM (active)
8. O=C(CN1C(=O)NC2(CCCc3ccccc32)C1=O)N1CCc2ccccc2C1 (configuration not stated) = 13.5 µM (active)
9. O=C(C[S+]([O-])c1ccc(C(F)(F)F)cc1[N+](=O)[O-])Oc1ccccc1 (configuration not stated) = 12.3 µM (active)
10. COc1cc(CNc2ccc(N3CCCCC3)cc2)ccc1OCC(=O)NC(C)(C)C = 6.55 µM (active)

Looking up `O=C(COc1ccccc1-c1ccccc1)NNC(=O)NC1CCCCC1` , I found its IC50 recorded as 15.8 µM (active)

Looking up `CC(=O)OCCOCn1cnn2c(=O)c(Br)c(C)nc12` , I found its IC50 recorded as 13.5 µM (active)

====

Target: FAD-linked sulfhydryl oxidase ALR (Homo sapiens, UniProt P55789)
Test: ALR-catalysed DTT oxidation blockers – biochemical, H2O2 detection, luminescence, cherry-pick, dose response (AID 493248)
The source made the active and inactive calls.
measurement.kind: AC50

Some solved entries appear below for comparison.
1. O=C(C#Cc1ccccc1)Nc1cccc(F)c1 = 2 µM (active)
2. NS(=O)(=O)c1ccc(CCNC(=O)CN2CCN(c3ccccc3O)CC2)cc1 = 3.94 µM (active)

Looking up O=C(c1[nH]nc2c1CCC2)N1CCCC(Nc2cccc(F)c2)C1 (stereo unspecified) , I found its AC50 recorded as 19.5 µM (active)

Looking up `COc1ccc(-c2cc(-c3nnc(S)n3-c3ccccc3OC)[nH]n2)cc1` , I found its AC50 recorded as 41.1 µM (active)

Looking up `COC(=O)c1ccc(CSc2nc3ccccc3c(=O)n2Cc2ccco2)o1` , I found its AC50 recorded as 4.51 µM (active)

Looking up `COc1cc(-c2nc3cnccn3c2NC(C)(C)CC(C)(C)C)ccc1O` , I found its AC50 recorded as 4.22 µM (active)
